# system: recombinant human ALK enzyme (ALK WT) (Homo sapiens, UniProt Q9UM73)
# Construct: purchased Carna Biosciences 08-518
# Sequence (Q9UM73 1058-1620 limits assumed): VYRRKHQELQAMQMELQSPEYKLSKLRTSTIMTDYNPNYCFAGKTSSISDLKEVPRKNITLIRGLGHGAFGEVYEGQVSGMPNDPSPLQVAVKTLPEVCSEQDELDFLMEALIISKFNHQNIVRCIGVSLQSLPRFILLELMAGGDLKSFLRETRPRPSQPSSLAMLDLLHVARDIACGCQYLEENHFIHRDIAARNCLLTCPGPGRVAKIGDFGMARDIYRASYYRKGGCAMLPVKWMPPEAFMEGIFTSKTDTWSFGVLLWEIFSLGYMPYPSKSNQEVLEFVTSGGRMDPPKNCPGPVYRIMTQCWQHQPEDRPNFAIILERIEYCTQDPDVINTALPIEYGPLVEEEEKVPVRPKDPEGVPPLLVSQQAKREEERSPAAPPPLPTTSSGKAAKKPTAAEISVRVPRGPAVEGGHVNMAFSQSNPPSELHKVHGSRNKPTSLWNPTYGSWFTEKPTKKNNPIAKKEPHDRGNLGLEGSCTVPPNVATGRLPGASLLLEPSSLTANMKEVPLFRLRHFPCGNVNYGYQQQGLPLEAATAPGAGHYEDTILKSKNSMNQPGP
# assay_summary: ALK WT cell free enzymatic assay (TR-FRET)
# Assay type: biochemical
# conditions: compound at 1 μM; 30 min pre-incubation; 1 μM ATP
attribute_measured: inhibition at 1 µM (%)
Your answer should be a plain number; it is taken to be in %.

>>> print(df.to_string())
                                   compound  reported_value
0  CS(=O)(=O)Nc1cccc(-c2cnc3[nH]cc(-c4cnn(Cc5ccccc5F)c4)c3c2)c1              92
1  CS(=O)(=O)Nc1cc(-c2cnc3[nH]cc(-c4cnn(CCc5ccccc5)c4)c3c2)ccc1F             100
2  COc1cc(-c2cnc3[nH]cc(-c4cnn(Cc5cc(F)cc(F)c5)c4)c3c2)ccc1NS(C)(=O)=O              97

# input compound: N#CCN1CCN(c2ccc(-c3cnc4[nH]cc(-c5cnn(Cc6cccc(F)c6)c5)c4c3)cn2)CC1 ; wanted: its inhibition at 1 µM
100

# input compound: c1ccc(Cn2cc(-c3c[nH]c4ncc(-c5ccc(C6CCNCC6)cc5)cc34)cn2)nc1 ; wanted: its inhibition at 1 µM
97

All values here come from patent US9353107B2.
